For each record, write down the corresponding IC50 of pseudo virus neutralization H5N1 VN/04.
# SYSTEM NAME: full-length H5 A/Vietnam/1203/2004 HA expressed on 293T cells (influenza A virus A/Vietnam/1203/2004 (H5N1))
# ASSAY OVERVIEW: cell-based or functional assay

Task: For the binder shown here, S06 (antibody, V domains shown) VH: EVQLVESGGGLVQPGGSLRLSCAASGFTIGGGWIHWVRQAPGKGLEWVAFIGPYGGSTFYADSVKGRFTISADTSKNTAYLQMNSLRAEDTAVYYCARFNFGFWNHMDYWGQGTLVTVSS VL: DIQMTQSPSSLSASVGDRVTITCRASQDVSSWVAWYQQKPGKAPKLLIYGTTFLHSGVPSRFSGSGSGTDFTLTISSLQPEDFATYYCQQYYNGPLTFGQGTKVEIKR , give the reported IC50 of pseudo virus neutralization H5N1 VN/04.
Output: > 200 µg/mL

Task: For the binder shown here, P10 (antibody, V domains shown) VH: EVQLVESGGGLVQPGGSLRLSCAASGFTIDNSWIHWVRQAPGKGLEWVASIWPFGGYTYYADSVKGRFTISADTSKNTAYLQMNSLRAEDTAVYYCARFGNVFDWYMDYWGQGTLVTVSS VL: DIQMTQSPSSLSASVGDRVTITCRASQDVNSNVAWYQQKPGKAPKLLIYWAGYLYSGVPSRFSGSGSGTDFTLTISSLQPEDFATYYCQQSSDFPITFGQGTKVEIKR , give the reported IC50 of pseudo virus neutralization H5N1 VN/04.
Output: > 200 µg/mL

Task: For the binder shown here, S11 (antibody, V domains shown) VH: EVQLVESGGGLVQPGGSLRLSCAASGFTIDNGGIHWVRQAPGKGLEWVAWIGPYGGSTSYADSVKGRFTISADTSKNTAYLQMNSLRAEDTAVYYCARFGFGLHDLMDYWGQGTLVTVSS VL: DIQMTQSPSSLSASVGDRVTITCRASQDVYSWVAWYQQKPGKAPKLLIYYSSFLYSGVPSRFSGSGSGTDFTLTISSLQPEDFATYYCQQYYNGPLTFGQGTKVEIKR , give the reported IC50 of pseudo virus neutralization H5N1 VN/04.
Output: > 200 µg/mL
